cytotoxicity at 70.5 h for assorted molecules
assay: Human HepG2 cell viability assay in 384 well format; type: toxicity, cell-based; set-up: dose 125 nL, time 70.5 hour; concentration not given beside the values; conditions: HepG2 cells, read-out: Inhibition
Supply the numeric figure in %, leaving out any unit text.

Known results for molecules:
Cc1cc(-c2cnn(CCNC(=O)c3cccnc3)c2C2CC2)on1: -16.3
CCC(=O)N1CCC2(CC1)COc1ccccc1S(=O)(=O)N(C)C2: -14.6
CN1CCO[C@H]2CN(C(=O)c3ccoc3)C[C@H]21: -7.03
Cc1nnc([C@@H]2C[C@H]3CN(C(=O)c4sccc4C)C[C@H]3O2)[nH]1: -8.24
CCc1ccsc1C(=O)N1CCCN(Cc2nccn2CC)CC1: 5.97
Cc1ncncc1C(=O)Nc1cnn(CC(=O)NC2CCCC2)c1: -19.5
c1ccc(-n2ccc(CNCC3CCCN3c3cccnn3)n2)cc1 (centres undefined): 0.819
CCc1cnc(C)nc1NCCc1nc(N)cc(O)n1: -3.5
CN(Cc1nccn1CC(F)(F)F)C(=O)c1cccc(N(C)C)c1: 0.768
COc1cc2c(c(OC)c1OC)CCN(CCn1nc(C)cc1C)CC2: -6.93

Qu. # input molecule: `Cc1n[nH]c(C)c1-c1cnc(CC2CCN(C(C)C)CC2)cn1` ; wanted: its cytotoxicity at 70.5 h
Ans. -2.78

Qu. # input molecule: `CS(=O)(=O)NC[C@]12COC[C@H]1CN(C(=O)c1ccccc1)C2` ; wanted: its cytotoxicity at 70.5 h
Ans. -3.75

Qu. # input molecule: O=C(CS(=O)(=O)CC1CCCCC1)NC1CCCCNC1=O (centres undefined) ; wanted: its cytotoxicity at 70.5 h
Ans. -14.4
